Biological target: SARS-CoV-2 nsp15 endoribonuclease (endoU) (Severe acute respiratory syndrome coronavirus 2, UniProt P0DTD1)
Experiment: biochemical
Type: biochemical
Details: read-out: 3° FRET Assay IC50
REPORTED METRIC: pIC50
pIC50 here is simply -log10 of the concentration when that concentration is written in mol/L.

Challenge: Which pIC50 is reported for this compound? `CC1(C)C(=O)N=C2C1=C(O)C(=O)c1ccccc12`
Response given: 7.00

----------
Biological target: SARS-CoV-2 nsp15 endoribonuclease (endoU) (Severe acute respiratory syndrome coronavirus 2)
Assay: biochemical
Format: biochemical
Conditions: primary screen at 10 μM; 25 nM nsp15, 0.5 μM substrate, 1 h; read-out: 1° FRET Assay % inhibition
REPORTED METRIC: inhibition at 10 µM

Challenge: Which inhibition at 10 µM is reported for this molecule? `O=C1C(NC2CCCCCCC2)=CC(=O)c2ncccc21`
Response given: 80%

Challenge: Moving on to `NCCCNc1ccc2c3c(nn2CCNCCO)-c2c(O)ccc(O)c2C(=O)c13`
Response given: 74%

Challenge: Moving on to `Cc1cc(-c2ccc(/N=N/c3c(S(=O)(=O)O)cc4cc(S(=O)(=O)O)cc(N)c4c3O)c(C)c2)ccc1/N=N/c1c(S(=O)(=O)O)cc2cc(S(=O)(=O)O)cc(N)c2c1O`
Response given: 58%

Challenge: Moving on to O=C1NC(=O)/C(=C\c2ccccc2)C2=C1CCCC2 [Tesimide]
Response given: 82%

Challenge: Moving on to `CC(C)(O/N=C(\C(=O)N[C@@H]1C(=O)N2C(C(=O)[O-])=C(C[n+]3ccccc3)CS[C@H]12)c1csc(N)n1)C(=O)O`
Response given: 66%

Challenge: Moving on to `Cc1nc2c(s1)C(=O)C=C(NCCN(C)C)C2=O`
Response given: 76%

Challenge: Moving on to `O=C(Nc1cccc(C2=NCCN2)c1)c1ccc(-c2ccc(C(=O)Nc3cccc(C4=NCCN4)c3)cc2)cc1`
Response given: 62%

Challenge: Moving on to `O=C(Nc1ccc(O)c(O)c1)c1cccc(O)c1O`
Response given: 57%
